# ASSAY_SYSTEM: gastrin receptor (Rattus norvegicus, UniProt P30553)
# Construct: The stomach was excised and flushed with ca. 1 ml of unbuffered physiological saline solution; from tissue; host or cells: isolated whole stomach of immature rats (ca. 21 days old)
# Sequence (P30553 1-452): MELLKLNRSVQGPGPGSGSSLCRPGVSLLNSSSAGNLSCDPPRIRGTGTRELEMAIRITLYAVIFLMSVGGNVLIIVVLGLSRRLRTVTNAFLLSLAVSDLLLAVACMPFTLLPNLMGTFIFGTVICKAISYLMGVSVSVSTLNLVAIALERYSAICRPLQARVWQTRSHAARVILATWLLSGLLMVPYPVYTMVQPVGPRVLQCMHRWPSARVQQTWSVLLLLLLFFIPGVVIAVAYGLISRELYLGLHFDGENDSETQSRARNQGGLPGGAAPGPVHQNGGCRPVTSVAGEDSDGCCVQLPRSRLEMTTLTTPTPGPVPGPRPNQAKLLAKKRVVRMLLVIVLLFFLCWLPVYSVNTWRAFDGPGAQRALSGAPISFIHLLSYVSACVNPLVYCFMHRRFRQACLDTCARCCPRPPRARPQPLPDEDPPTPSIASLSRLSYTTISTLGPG
# PROTOCOL: gastrin antagonist activity in immature rat stomach assay (pentagastrin dose-response, acid secretion)
# CONDITION_DETAILS: isolated immature rat stomach, cumulative pentagastrin dose-response curves, read-out: Gastrin pKb (converted)
Grouping key: Kb. Bins: low range: < 8 nM; mid range: ≥ 8 nM and < 100 nM; high range: ≥ 100 nM

Known results for compounds:
- COMPOUND: "O=C(O)CNC(=O)c1cccc(NC(=O)c2nc(C3CCCCC3)[nH]c2CCC23CC4CC(CC(C4)C2)C3)c1"
  GROUP_LABEL: "mid range"
- COMPOUND: "Cc1ccc(NC(=O)c2nc(C3CCCCC3)[nH]c2COC23CC4CC(CC(C4)C2)C3)cc1C(=O)O"
  GROUP_LABEL: "low range"
- COMPOUND: "O=C(O)c1cccc(NC(=O)c2nc(C3CCOCC3)[nH]c2COC23CC4CC(CC(C4)C2)C3)c1"
  GROUP_LABEL: "mid range"

Could you now consider this next compound?
Consider Cc1ccccc1-c1nc(C(=O)Nc2ccc(Br)c(C(=O)O)c2)c(CCC23CC4CC(CC(C4)C2)C3)[nH]1 . To which Kb class does it belong?
high range
